# Protocol details: chemical genetic growth profiling, strain panel (AID 1159580);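 also: tested at 20 µM; growth read once vehicle control cultures reached saturation at 30 °C; 1 = growth at the plate median or of vehicle wells; lower values mean less growth of the strain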
# Measurement conditions: S. cerevisiae deletion strains, growth OD, locus YOR265W, strain rbl2, hits give low values
The whole screen tested about 5,500 compounds, of which about 2,000 (36%) were called active. Not shown: some 18% with an inconclusive outcome. The list shows a part of the results.
For each of the molecules below, state its normalized growth.
Provide a numeric answer; units are not to be included.

## Task Query: normalized growth; subject: CC1=C(C(=O)O)N2C(=O)[C@@H](NC(=O)[C@@H](N)c3ccc(O)cc3)[C@H]2SC1
## Result 1.02

## Task And the next one, CN1CCCCC1c1ccc(-c2cccnc2)nc1 (stereo not given) ?
## Result 1.01

## Task Same for O=C(O)c1cccnc1C(=O)O
## Result 0.989

## Task // same read-out, input: CCC1(C2=NCCN2)Cc2ccccc2O1 (stereo not given)
## Result 1.01

## Task Next record, please: CC(=O)Oc1c(C)c(C)c2c(c1C)CCC(C)(CCCC(C)CCCC(C)CCCC(C)C)O2 (stereo not given)
## Result 0.988

## Task And the next one, COC(=O)C[C@H]1C(C)(C)[C@@H](OC(C)=O)[C@@H]2CC3=C4CC(=O)O[C@@H](c5ccoc5)[C@]4(C)CCC3[C@@]1(C)C2=O (stereo not given in full) ?
## Result 1

## Task How about this molecule: O=C(O)CCC(=O)OC[C@@H](NC(=O)C(Cl)Cl)[C@H](O)c1ccc([N+](=O)[O-])cc1
## Result 0.976

## Task Input CC1(C)CC23C(=O)CCC(O)C2(C)CCC13 (stereo not given)
## Result 1

## Task What do you get for CCCCCCCCCCCCCCCC(=O)OC[C@H](NC(=O)C(Cl)Cl)[C@H](O)c1ccc([N+](=O)[O-])cc1 ?
## Result 1.02

## Task Same again, this time with CNC(=O)N(C)c1nnc(C(C)(C)C)s1
## Result 0.994
